Source of measurements: the RNAGym collection of RNA variant scans (doi:10.7554/elife.80360)

What self-cleavage was measured for each of the following?
B1: HDV Ribozyme (parent)
chain: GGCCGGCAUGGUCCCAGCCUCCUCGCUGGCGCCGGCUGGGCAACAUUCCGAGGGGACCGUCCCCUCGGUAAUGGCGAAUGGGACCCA

Variants of: B1
run description: self-cleavage, relative activity (ratio to wild type); higher = more cleavage; co-transcriptional
Respond using a number only.

Query (variant): C14U G52A ; field requested: self-cleavage 0.973

// self-cleavage lookup, key: U69A G81C 0.325

Quick check: self-cleavage of C48U A77C ? 0.57

Look at this variant and give its reported self-cleavage. "U20C" 0.129

Item G35A G39U has what recorded self-cleavage? 0.128

Entry under review: G35A C57U . Reported self-cleavage? 0.686

So what does the record say about self-cleavage for C15G G28A ? 0.0627

# get_value(readout='self-cleavage', item= C44U U46C ) 0.571

Param item = G40U C62U ; retrieve measured self-cleavage. 0.872

Please look up its self-cleavage: C30U G68A 0.546

self-cleavage lookup needed for C24U U65G , thanks. 0.435

I would be grateful if you could share the reported self-cleavage for A42C U46G . 0.166

Looking for the measured self-cleavage of C36G G80A , can you help? 0.0382

What value of measured self-cleavage is listed for C19U U65A ? 0.0791

Look up self-cleavage for this variant: C75G C85G 0.0923

Suppose we examine the variant G2C C58G ; what self-cleavage value has been reported? 0.13

Recorded self-cleavage for C44U A83G , please? 0.48

Looking for the measured self-cleavage of C3U A16C , can you help? 0.437

If you can, please state the reported self-cleavage value of A8U C64A . 0.538

Which self-cleavage reading was recorded for the variant G25U U47A ? 0.161

Please give the measured self-cleavage for this variant: A42C C48U 0.26

Returns the measured self-cleavage for the input variant. Input: U47A A51U 1.03

So what does the record say about self-cleavage for C26U A43U ? 0.708

Record request: self-cleavage value, item C14A A43U 0.145

Could you tell me which self-cleavage is on file for C22U C33A ? 0.0692

State the recorded self-cleavage for this entry: C14G U20C 0.0554

Suppose we examine the variant G59U U79C ; what self-cleavage value has been reported? 0.563

Entry under review: C62U C64U . Reported self-cleavage? 0.796

// lookup self-cleavage for U37G G68C 0.246

Look at this variant and give its reported self-cleavage. C30U A51C 0.594

Need self-cleavage of C13U U37A , thanks. 0.0308

So what's the measured self-cleavage for this one? C64G G68A 0.338

Could you tell me which self-cleavage is on file for C30A A42U ? 0.241

Requested read-out: self-cleavage. Entry: G38U U60A 0.175

If you can, please state the reported self-cleavage value of C75A C86G . 0.0997

Would you kindly share the measured self-cleavage for C36A C58A ? 0.227

I am curious: what self-cleavage value has been reported for G1U G53C ? 0.283

# get_value(readout='self-cleavage', item= G1C G53C ) 0.332

Give the measured self-cleavage of G34U U72A . 0.151

What measured self-cleavage goes with U37G A43G ? 0

GET /values?readout=self-cleavage&item= A45C G82U 0.397

Which self-cleavage is reported for this variant? C7G C18A 0.0639

Item C7U C44A has what recorded self-cleavage? 0.403

What measured self-cleavage goes with A16C C62U ? 0.804

Look at this variant and give its reported self-cleavage. G6U C64U 0.723

Any idea what self-cleavage was measured for G17A A45G ? 0.755
